System: TbtF
Experiment Description: fluorescence polarisation
IC50 reference
Give the number; nM is assumed, so skip it.

Binder	Property Measured	Readout Unit	Assay Result
MDLNDLPMDAFELADSGVAVESLTAGHGMTEVGASCNCFCYICCSCSSA [TbtA V(−25)A]	IC50	nM	620
MDLNALPMDVFELADSGVAVESLTAGHGMTEVGASCNCFCYICCSCSSA [TbtA D(−30)A]	IC50	nM	940
MDLNDLPMDVFELADSGVAAESLTAGHGMTEVGASCNCFCYICCSCSSA [TbtA V(−15)A]	IC50	nM	630
MDLNDLPMDVFELADSGVAVESLTAGAGMTEVGASCNCFCYICCSCSSA [TbtA H(−8)A]	IC50	nM	980

Lookup: What value of measured IC50 is listed for MDLNDLPMDVFELADAGVAVESLTAGHGMTEVGASCNCFCYICCSCSSA [TbtA S(−19)A] ?
Found: 1570

Lookup: What value of measured IC50 is listed for MDLNDLPMDVFALADSGVAVESLTAGHGMTEVGASCNCFCYICCSCSSA [TbtA E(−23)A] ?
Found: 1270
